Overview of recorded Ratio for various compounds
Assay: Activity at P-gp (unknown origin) assessed as corrected flux ratio
Type: ADME
Settings: human
MEASURED_METRIC: Ratio

INSERT INTO measurements (compound, result_number) VALUES
  ('Cc1ncc(OC[C@@]2(c3ccccc3)C[C@H]2C(=O)Nc2cccc(F)n2)c(C)n1', 1.4),
  ('Cc1ncc(OC[C@@]2(c3ccccc3)C[C@H]2C(=O)Nc2ccc(Cl)cn2)c(C)n1', 1.3),
  ('Cc1ncc(OC[C@@]2(c3cc(F)cc(F)c3)C[C@H]2C(=O)Nc2ccc(F)cn2)c(C)n1', 1.5),
  ('Cc1ncc(OC[C@@]2(c3ccccc3)C[C@H]2C(=O)Nc2cccnc2)c(C)n1', 4.4),
  ('Cc1ncc(OC[C@@]2(c3ccccc3)C[C@H]2C(=O)Nc2ccc(F)cn2)c(C)n1', 1.7),
  ('Cc1ncc(OC[C@@]2(c3ccccc3F)C[C@H]2C(=O)Nc2ccc(F)cn2)c(C)n1', 1.4),
  ('CCn1cc(OCC2(c3ccccc3)CC2C(=O)Nc2ccc(C#N)cn2)c(C)n1 (racemic)', 1.5),
  ('CCc1nc(C)ncc1OC[C@@]1(c2ccccc2)C[C@H]1C(=O)Nc1ccc(C#N)cn1', 2.1),
  ('Cc1ncc(OC[C@@]2(c3ccccc3)C[C@H]2C(=O)Nc2ccc(C#N)cn2)c(C)n1', 2.7),
  ('Cc1ccnc(NC(=O)[C@@H]2C[C@@]2(COc2cnc(C)nc2C)c2ccccc2)c1', 1.5),
  ('Cc1ncc(OC[C@@]2(c3cccc(F)c3)C[C@H]2C(=O)Nc2cc(C)c(F)cn2)c(C)n1', 1.4),
  ('Cc1cnc(OC[C@@]2(c3ccccc3)C[C@H]2C(=O)Nc2ccc(C#N)cn2)c(C)n1', 1.3),
  ('Cc1ncc(OC[C@@]2(c3ccccc3)C[C@H]2C(=O)Nc2ccccn2)c(C)n1', 1.9),
  ('CCn1cc(OC[C@@]2(c3ccccc3)C[C@H]2C(=O)Nc2ccc(C#N)cn2)c(C)n1', 0.9),
  ('COCc1nc(C)ncc1OC[C@@]1(c2ccccc2)C[C@H]1C(=O)Nc1ccc(C#N)cn1', 4),
  ('Cc1ncc(OC[C@@]2(c3ccccc3)C[C@H]2C(=O)Nc2ccncc2)c(C)n1', 6);
